Biological target: T1, anti-CD28 scFv (VH - linker 1 - VL) (biotinylated (site not given))
T1 construct: Biotinylated scFv captured on neutravidin coated plates in the panning ELISA
T1 sequence (scFv, as listed by the source): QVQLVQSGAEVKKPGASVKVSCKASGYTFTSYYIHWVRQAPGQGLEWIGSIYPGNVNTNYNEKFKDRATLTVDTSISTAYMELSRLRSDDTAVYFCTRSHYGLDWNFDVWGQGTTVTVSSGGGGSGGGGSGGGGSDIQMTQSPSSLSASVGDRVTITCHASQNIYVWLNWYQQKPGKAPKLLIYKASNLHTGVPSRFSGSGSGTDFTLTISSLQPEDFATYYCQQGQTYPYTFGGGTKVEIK
Assay: phage ELISA; biotinylated anti-CD28 scFv on neutravidin plate, clonal phage supernatant, anti-M13 HRP
Where no end group is shown, it is not given here.
PARAMETER_MEASURED: CD28 scFv signal
Kindly provide the number alone.

Sample answers from the record:
INSERT INTO measurements (binder, measured_result) VALUES
  ('MDWCPFYLWNECFY (cysteine pairing not given here; also: phage-displayed pIII fusion, pIII and linker not given here) [Phage-111]', 2.53),
  ('MDWCPRFLWSECFN (cysteine pairing not given here; also: displayed on phage as fusion to pIII, linker not given here, also called position columns give F at position 7)) [Phage-95]', 2.57),
  ('MDWCPRDLWNVCFF (cysteine pairing not given here; also: phage-displayed pIII fusion, pIII and linker not given here) [Phage-113]', 2.52);

// CD28 scFv signal lookup, key: MDWCPKYLWDVCFN (cysteine pairing not given here; also: displayed on phage as fusion to pIII, linker not given here) [Phage-98]
2.57

// CD28 scFv signal lookup, key: MDWCPKNLWHVCFN (cysteine pairing not given here; also: phage-displayed pIII fusion, pIII and linker not given here) [Phage-109]
2.53

// CD28 scFv signal lookup, key: MHWCPRALWDVCYN (cysteine pairing not given here; also: phage-displayed pIII fusion, pIII and linker not given here) [Phage-112]
2.53

// CD28 scFv signal lookup, key: MDWCPRYLWHECFN (cysteine pairing not given here; also: phage-displayed pIII fusion, pIII and linker not given here) [Phage-115]
2.49

// CD28 scFv signal lookup, key: MDWCPRDLWYACFA (cysteine pairing not given here; also: phage-displayed pIII fusion, pIII and linker not given here) [Phage-116]
2.47

// CD28 scFv signal lookup, key: MDWCPRYLWTECFN (cysteine pairing not given here; also: phage-displayed pIII fusion, pIII and linker not given here) [Phage-100]
2.56

// CD28 scFv signal lookup, key: MDWCPRYLWDECFN (cysteine pairing not given here; also: phage-displayed pIII fusion, pIII and linker not given here) [Phage-110]
2.53
